Measured values drawn from ChEMBL document CHEMBL3507680 for this set.

Test: Human HepG2 cell viability assay in 384 well format
Format: toxicity, cell-based
Set-up: dose 125 nL, time 70.5 hour; concentration not given beside the values
Settings: HepG2 cells, read-out: Inhibition
Record form. Attribute: cytotoxicity at 70.5 h. Fill in for each entry.
Answers are plain numbers, in %.

Example cases with answers are listed next.
Cc1cccc(-c2noc(CN3CCOCC3C)n2)c1 (configuration not stated) :: -5.27
Cc1n[nH]c(C)c1CN1CCC(c2cc(C(C)C)n[nH]2)CC1 :: 1.2
CN1CCC2(CC1)CN(Cc1ccc(C3CCCCO3)o1)CCCN2C (configuration not stated) :: -4.97

# batch size: 4; output cytotoxicity at 70.5 h per entry
1. Cc1nn(C)c2nc(C3CC3)c(Cl)c(C(=O)O)c12
2. Nc1ncccc1CN1C[C@@H](C(=O)O)[C@H](c2cccc(F)c2)C1
3. CCS(=O)(=O)CC(=O)Nc1c(C)cnn1Cc1cc(F)ccc1F
4. O=C(NCc1cccc(C(F)(F)F)c1)C(c1cccnc1)N1CCCC1 (configuration not stated)

Result:
0.618
1.75
25.7
-4.98

I would be grateful if you could provide cytotoxicity at 70.5 h for each of the following entries.
1. O=C(COCc1ccccc1)NCc1ccc(O)c(F)c1
2. CCCN1CCCn2nc(CNC(=O)CCc3scnc3C)cc2C1
3. CCC(NC(=O)c1cccc(N2CCCC2=O)c1)c1ccc(OC)cc1 (configuration not stated)

Result:
1: -0.734; 2: -1.73; 3: -4.2

Okay, here is my list. What is cytotoxicity at 70.5 h for each of these?
1. CCNc1cc2c(nn1)CCN(C(=O)c1nccnc1N)C2
2. CSCC(=O)N1CCCN(Cc2cscn2)CC1
3. Cc1ccc(C2COCCN2C(=O)c2ccc(CN(C)C)cc2)o1 (configuration not stated)
4. COc1ccc(CNC(=O)CCc2nnc3ccccn3c2=O)cc1
5. Cc1cncc(C(=O)N2CCCC3(CCCN3S(C)(=O)=O)C2)c1 (configuration not stated)
6. O=C(COCC1CC1)N1CCCC1c1nc(-c2ccccc2F)c[nH]1 (configuration not stated)
7. O=C(c1cccnc1N1CCOC(c2ccc(F)cc2)C1)N1CCCC1 (configuration not stated)
8. CCc1ncc2c(n1)CN(C(C(N)=O)c1ccccc1)CC2 (configuration not stated)

Result:
1. -2.38
2. -2.64
3. -6.21
4. 20.7
5. -8.81
6. 2.15
7. -14.7
8. -3.45

Provide the reported cytotoxicity at 70.5 h of each entry below, same order.
1. CCn1nc(C)c2ncnc(NCC(=O)N3CCOCC3)c21
2. O=C1CC(c2ccc3c(c2)OCO3)c2c(n3ccsc3nc2=O)N1 (configuration not stated)
3. CC(=O)N(Cc1noc(C)n1)C1CCN(Cc2c(C)noc2C)C1 (configuration not stated)
4. CS(=O)(=O)c1ccc(NCC2CCCO2)c(S(C)(=O)=O)c1 (configuration not stated)
5. CC(C)(C)OC(=O)NCC1CCN(C(=O)c2cc(Cl)c[nH]2)CC1

Result:
-11.2
-9.84
-0.736
-9.12
-14.2
